These data points were gathered from paper PMC10653547.

# System: colistin-resistant K. pneumoniae clinical isolates
# assay_protocol: Disk diffusion antimicrobial susceptibility testing (CLSI); note: key: R: resistant; I: intermediate; SDD: susceptible-dose dependent; S: sensitive
# Type: cell-based, Klebsiella pneumoniae
# condition_details: KP-01
measurement_kind: Interpreted results of disk diffusion

{"molecule": "C[C@@H](O)[C@H]1C(=O)N2C(C(=O)O)=C(S[C@@H]3CN[C@H](C(=O)Nc4cccc(C(=O)O)c4)C3)[C@H](C)[C@H]12", "Interpreted results of disk diffusion": "R"}
{"molecule": "C[C@@H]1O[C@@H]1P(=O)(O)O", "Interpreted results of disk diffusion": "S"}
{"molecule": "NCC[C@H](O)C(=O)N[C@@H]1C[C@H](N)[C@@H](O[C@H]2O[C@H](CN)[C@@H](O)[C@H](O)[C@H]2O)[C@H](O)[C@H]1O[C@H]1O[C@H](CO)[C@@H](O)[C@H](N)[C@H]1O", "Interpreted results of disk diffusion": "S"}
{"molecule": "CO/N=C(\\C(=O)N[C@@H]1C(=O)N2C(C(=O)O)=C(CSc3nc(=O)c(=O)[nH]n3C)CS[C@H]12)c1csc(N)n1", "Interpreted results of disk diffusion": "R"}
{"molecule": "CNC(C)C1CCC(N)C(OC2C(N)CC(N)C(OC3OCC(C)(O)C(NC)C3O)C2O)O1 (stereo not drawn)", "Interpreted results of disk diffusion": "S"}

Look up Interpreted results of disk diffusion for the entries below, preserving their order.
1. CO/N=C(\C(=O)N[C@@H]1C(=O)N2C(C(=O)[O-])=C(C[N+]3(C)CCCC3)CS[C@H]12)c1csc(N)n1 [FEP, cefepime]
2. CO[C@@]1(NC(=O)Cc2cccs2)C(=O)N2C(C(=O)O)=C(COC(N)=O)CS[C@@H]21
3. O=C(N[C@H](CO)[C@H](O)c1ccc([N+](=O)[O-])cc1)C(Cl)Cl
4. CC(C)(O/N=C(\C(=O)N[C@@H]1C(=O)N2C(C(=O)[O-])=C(C[n+]3ccccc3)CS[C@H]12)c1csc(N)n1)C(=O)O

# output
1: R; 2: R; 3: R; 4: R

---

# System: colistin-resistant K. pneumoniae clinical isolates
# assay_protocol: Disk diffusion antimicrobial susceptibility testing (CLSI); note: key: R: resistant; I: intermediate; SDD: susceptible-dose dependent; S: sensitive
# Format: cell-based, Klebsiella pneumoniae
# condition_details: KP-09
measurement_kind: Interpreted results of disk diffusion

{"compound": "CNC(C)C1CCC(N)C(OC2C(N)CC(N)C(OC3OCC(C)(O)C(NC)C3O)C2O)O1 (stereo not drawn)", "obs_value": "S"}
{"compound": "C[C@@H]1O[C@@H]1P(=O)(O)O", "obs_value": "R"}
{"compound": "CO/N=C(\\C(=O)N[C@@H]1C(=O)N2C(C(=O)O)=C(CSc3nc(=O)c(=O)[nH]n3C)CS[C@H]12)c1csc(N)n1", "obs_value": "R"}

---

# Tested on: colistin-resistant E. coli clinical isolates
# assay_protocol: Disk diffusion antimicrobial susceptibility testing (CLSI)
# Type: cell-based, Escherichia coli
# condition_details: EC-08
measurement_kind: Interpreted results of disk diffusion

{"molecule": "C[C@@H]1O[C@@H]1P(=O)(O)O [FOS, fosfomycin]", "measurement_kind": "Interpreted results of disk diffusion", "obs_value": "S"}
{"molecule": "CO[C@@]1(NC(=O)Cc2cccs2)C(=O)N2C(C(=O)O)=C(COC(N)=O)CS[C@@H]21 [FOX, cefoxitin]", "measurement_kind": "Interpreted results of disk diffusion", "obs_value": "S"}
{"molecule": "CO/N=C(\\C(=O)N[C@@H]1C(=O)N2C(C(=O)[O-])=C(C[N+]3(C)CCCC3)CS[C@H]12)c1csc(N)n1 [FEP, cefepime]", "measurement_kind": "Interpreted results of disk diffusion", "obs_value": "SDD"}
{"molecule": "C[C@@H](O)[C@H]1C(=O)N2C(C(=O)O)=C(S[C@@H]3CN[C@H](C(=O)Nc4cccc(C(=O)O)c4)C3)[C@H](C)[C@H]12 [ETP, ertapenem]", "measurement_kind": "Interpreted results of disk diffusion", "obs_value": "S"}
